src = patent US20250019377A1

# TGT: K-Ras G12V (Homo sapiens, UniProt P01116, G12V)
# Sequence (P01116 1-169 isoform P01116-2 G12V): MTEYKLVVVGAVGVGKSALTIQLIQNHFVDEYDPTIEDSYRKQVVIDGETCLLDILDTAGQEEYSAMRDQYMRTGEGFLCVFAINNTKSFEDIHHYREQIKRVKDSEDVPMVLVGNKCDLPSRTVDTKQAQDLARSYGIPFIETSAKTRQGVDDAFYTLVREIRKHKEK
# ASSAY COMMENT: SOS1 catalyzed nucleotide exchange assay (GDP form K-Ras), K-Ras G12V
# EXPERIMENTAL CONTEXT: read-out: K-Ras G12V GDP Biochemical Activity (IC50)
PARAMETER MEASURED: IC50 (nM)
Number in nM, nothing else.

Consider the compound shown here: C#Cc1c(F)ccc2cc(O)cc(-c3ncc4c(N5CCCO[C@@H]6C[C@@H]65)nc(OCC5(CN6CCOCC6)CC5)nc4c3F)c12 (single isomer, unassigned) [Compound 28B] What is its recorded IC50?
2.31

Now try C#Cc1c(F)ccc2cc(O)cc(-c3ncc4c(N5CC(F)(F)COCC5C)nc(OC[C@@]56CCCN5C[C@H](F)C6)nc4c3F)c12 (stereo partly drawn) .
2.08

Now try C#Cc1c(F)ccc2cc(O)cc(-c3ncc4c(N5CCCOCC5)nc(OCC5CNCCN5C)nc4c3F)c12 (stereo not drawn) .
18.6

Now try "C#Cc1c(F)ccc2cc(O)cc(-c3ncc4c(N5[C@H]6COC[C@H](C)[C@@H]5C6)nc(OC[C@@]56CCCN5C[C@H](F)C6)nc4c3F)c12" .
6.63

Now try "C#Cc1c(F)ccc2cc(O)cc(-c3nc(C(F)F)c4c(N5CCCOCC5)nc(OC[C@@]56CCCN5C[C@H](F)C6)nc4c3F)c12" .
2.12

Now try C#Cc1c(F)ccc2cc(O)cc(-c3ncc4c(N5CCCO[C@@H](C)C5)nc(OC[C@@]56CCCN5C[C@H](F)C6)nc4c3F)c12 (single isomer, unassigned) .
2.49

====

# TGT: K-Ras G12V (Homo sapiens, UniProt P01116, G12V)
# ASSAY COMMENT: SOS1 catalyzed nucleotide exchange assay (GDP form K-Ras), K-Ras G12V
# EXPERIMENTAL CONTEXT: read-out: K-Ras G12V GDP Biochemical Activity (IC50)
I'd appreciate it if you could supply pIC50 values for the items below.
Keep it numeric: pIC50 is minus log10 of the concentration in mol/L.

Query pIC50 on K-Ras G12V (Homo sapiens, UniProt P01116, G12V) for C#Cc1c(F)ccc2cc(O)cc(-c3ncc4c(N5CCOCC(C)(F)C5)nc(OC[C@@]56CCCN5C[C@H](F)C6)nc4c3F)c12 (stereo partly drawn) [Compound 101]
8.57

Now try C#Cc1c(F)ccc2cc(O)cc(-c3ncc4c(N5CCCOCC5)nc(OCC5CC6CCN5CC6)nc4c3F)c12 (stereo not drawn) [Compound 99] .
7.65

Now try C#Cc1c(F)ccc2cc(O)cc(-c3nc(C)c4c(N5CCCOCC5)nc(OC[C@@]56CCCN5C[C@H](F)C6)nc4c3F)c12 [Compound 121] .
8.52

Now try C#Cc1c(F)ccc2cc(O)cc(-c3ncc4c(N5CCOCC(C#N)C5)nc(OC[C@@]56CCCN5C[C@H](F)C6)nc4c3F)c12 (stereo partly drawn) [Compound 88] .
7.87

Now try C#Cc1c(F)ccc2cc(O)cc(-c3ncc4c(N5CCCO[C@H](CC#N)C5)nc(OC[C@@]56CCCN5C[C@H](F)C6)nc4c3F)c12 (single isomer, unassigned) .
7.63

Now try C#Cc1c(F)ccc2cc(O)cc(-c3ncc4c(N5CC(C)COCC5C)nc(OC[C@@]56CCCN5C[C@H](F)C6)nc4c3F)c12 (stereo partly drawn) [Compound 27] .
8.09

====

# TGT: K-Ras G12D (Homo sapiens, UniProt P01116, G12D)
# Sequence (P01116 1-169 isoform P01116-2 G12D): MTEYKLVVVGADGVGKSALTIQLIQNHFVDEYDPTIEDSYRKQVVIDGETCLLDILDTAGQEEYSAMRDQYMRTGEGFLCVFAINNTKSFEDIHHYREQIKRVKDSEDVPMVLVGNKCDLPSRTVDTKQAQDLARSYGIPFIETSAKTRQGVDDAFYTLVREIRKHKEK
# ASSAY COMMENT: GTP-K-Ras and cRAF interaction assay (GppNp-K-Ras), K-Ras G12D
# EXPERIMENTAL CONTEXT: read-out: K-Ras G12D GppNp Biochemical Activity (IC50)
PARAMETER MEASURED: IC50 (nM)
Number in nM, nothing else.

Consider the compound shown here: C#Cc1c(F)ccc2cc(O)cc(-c3ncc4c(N5CCCOC[C@@H]5C)nc(OC[C@@]56CCCN5C[C@H](F)C6)nc4c3F)c12 (single isomer, unassigned) [Compound 16A] What is its recorded IC50?
315

Now try C#Cc1c(F)ccc2cc(O)cc(-c3c(Cl)cc4c(N5CCCOCC5)nc(OC[C@@]56CCCN5C[C@H](F)C6)nc4c3F)c12 (atropisomer, axis not shown; (M)) [Compound 19B] .
57

Now try C#Cc1c(F)ccc2cc(O)cc(-c3ncc4c(N5CCOC[C@H](CC#N)C5)nc(OC[C@@]56CCCN5C[C@H](F)C6)nc4c3F)c12 (single isomer, unassigned) [Compound 14B] .
7.31

Now try C#Cc1c(F)ccc2cc(O)cc(-c3ncc4c(N5CCCOC[C@H]5C)nc(OC[C@@]56CCCN5C[C@H](F)C6)nc4c3F)c12 (single isomer, unassigned) [Compound 16B] .
7.46

====

# TGT: K-Ras G12A (Homo sapiens, UniProt P01116, G12A)
# Sequence (P01116 1-169 isoform P01116-2 G12A): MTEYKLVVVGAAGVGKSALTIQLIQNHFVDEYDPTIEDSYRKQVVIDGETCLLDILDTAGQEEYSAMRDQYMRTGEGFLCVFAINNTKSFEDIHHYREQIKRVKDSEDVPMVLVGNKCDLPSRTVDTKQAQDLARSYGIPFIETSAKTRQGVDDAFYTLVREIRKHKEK
# ASSAY COMMENT: GTP-K-Ras and cRAF interaction assay (GppNp-K-Ras), K-Ras G12A
# EXPERIMENTAL CONTEXT: read-out: K-Ras G12A GppNp Biochemical Activity (IC50)
PARAMETER MEASURED: pIC50
Keep it numeric: pIC50 is minus log10 of the concentration in mol/L.

Consider the compound shown here: C#Cc1c(F)ccc2cc(O)cc(-c3c(Cl)cc4c(N5CCCOCC5)nc(OC[C@@]56CCCN5C[C@H](F)C6)nc4c3F)c12 (atropisomer, axis not shown; (M)) [Compound 19B] What is its recorded pIC50?
6.31

Now try C#Cc1c(F)ccc2cc(O)cc(-c3ncc4c(N5CCCOC[C@H]5C)nc(OC[C@@]56CCCN5C[C@H](F)C6)nc4c3F)c12 (single isomer, unassigned) [Compound 16B] .
7.01

====

# Test system: TCC-PAN2 cells (K-Ras G12R)
# ASSAY COMMENT: 3D cell growth inhibition assay, TCC-PAN2
# Format: cell-based
# EXPERIMENTAL CONTEXT: 144 h, 6 days, absolute IC50
PARAMETER MEASURED: IC50

Consider the compound shown here: C#Cc1c(F)ccc2cc(O)cc(-c3ncc4c(N5CCCOC[C@H]5C)nc(OC[C@@]56CCCN5C[C@H](F)C6)nc4c3F)c12 (single isomer, unassigned) [Compound 16B] What is its recorded IC50?
319 nM

Now try "C#Cc1c(Cl)ccc2cc(O)cc(-c3ncc4c(N5CCCOCC5)nc(OC[C@@]56CCCN5C[C@H](F)C6)nc4c3F)c12" .
949 nM

Now try "C#Cc1c(F)ccc2cc(O)cc(-c3ncc4c(N5CCCOCC5)nc(OC[C@@]56CCCN5C[C@H](F)C6)nc4c3F)c12" .
189 nM

Now try "C#Cc1c(C)ccc2cc(O)cc(-c3ncc4c(N5CCCOCC5)nc(OC[C@@]56CCCN5C[C@H](F)C6)nc4c3F)c12" .
≥ 1000 nM

Now try "C#Cc1c(F)ccc2cc(O)cc(-c3nc(NC)c4c(N5CCCOCC5)nc(OC[C@@]56CCCN5C[C@H](F)C6)nc4c3F)c12" .
≥ 1000 nM

====

I'd appreciate it if you could supply pIC50 values for the items below.
# TGT: K-Ras Q61H (Homo sapiens, UniProt P01116, Q61H)
# Sequence (P01116 1-169 isoform P01116-2 Q61H): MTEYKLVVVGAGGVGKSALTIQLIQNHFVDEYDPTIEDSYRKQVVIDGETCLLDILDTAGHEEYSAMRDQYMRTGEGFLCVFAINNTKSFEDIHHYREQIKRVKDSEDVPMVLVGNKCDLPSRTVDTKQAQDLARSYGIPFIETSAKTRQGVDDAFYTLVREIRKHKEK
# ASSAY COMMENT: GTP-K-Ras and cRAF interaction assay (GppNp-K-Ras), K-Ras Q61H
# EXPERIMENTAL CONTEXT: read-out: K-Ras Q61H GppNp Biochemical Activity (IC50)
Keep it numeric: pIC50 is minus log10 of the concentration in mol/L.

Consider the compound shown here: C#Cc1c(F)ccc2cc(O)cc(-c3c(Cl)cc4c(N5CCCOCC5)nc(OC[C@@]56CCCN5C[C@H](F)C6)nc4c3F)c12 (atropisomer, axis not shown; (M)) [Compound 19B] What is its recorded pIC50?
6.67

Now try C#Cc1c(F)ccc2cc(O)cc(-c3ncc4c(N5CCCOC[C@H]5C)nc(OC[C@@]56CCCN5C[C@H](F)C6)nc4c3F)c12 (single isomer, unassigned) [Compound 16B] .
7.41

====

I'd appreciate it if you could supply pIC50 values for the items below.
# TGT: UniProt P01116
# ASSAY COMMENT: SOS1 catalyzed nucleotide exchange assay (GDP form K-Ras), K-Ras WT
# EXPERIMENTAL CONTEXT: read-out: K-Ras WT GDP Biochemical Activity (IC50)
Keep it numeric: pIC50 is minus log10 of the concentration in mol/L.

Consider the compound shown here: C#Cc1c(F)ccc2cc(O)cc(-c3ncc4c(N5CCCOCC5)nc(OCC56CCCN5C[C@@](C)(F)C6)nc4c3F)c12 (single isomer, unassigned) [Compound 32A] What is its recorded pIC50?
8.58

Now try C#Cc1c(F)ccc2cc(O)cc(-c3ncc4c(N5CCOC[C@@H](F)C5)nc(OC[C@@]56CCCN5C[C@H](F)C6)nc4c3F)c12 (single isomer, unassigned) [Compound 12A] .
8.65

Now try C#Cc1c(F)ccc2cc(O)cc(-c3ncc4c(N5CCCOC[C@@H]5C)nc(OC[C@@]56CCCN5C[C@H](F)C6)nc4c3F)c12 (single isomer, unassigned) [Compound 16A] .
8.41

Now try C#Cc1c(F)ccc2cc(O)cc(-c3ncc4c(N5CCCOCC5)nc(OCC5CC6CCN5CC6)nc4c3F)c12 (stereo not shown) .
7.46

Now try "C#Cc1c(F)ccc2cc(O)cc(-c3ccc4c(N5CCCOCC5)nc(OCC5(CN6CCOCC6)CC5)nc4c3F)c12" .
7.90

Now try C#Cc1c(F)ccc2cc(O)cc(-c3ncc4c(N5CCCOC[C@H]5C)nc(OC[C@@]56CCCN5C[C@H](F)C6)nc4c3F)c12 (single isomer, unassigned) [Compound 16B] .
8.76

Now try C#Cc1c(F)ccc2cc(O)cc(-c3ncc4c(N5CCOC[C@H](C)C5)nc(OC[C@@]56CCCN5C[C@H](F)C6)nc4c3F)c12 (single isomer, unassigned) [Compound 13B] .
9.12

Now try C#Cc1c(F)ccc2cc(O)cc(-c3ncc4c(N5CCOC[C@H](O)C5)nc(OC[C@@]56CCCN5C[C@H](F)C6)nc4c3F)c12 (single isomer, unassigned) [Compound 46A] .
8.10

Now try C#Cc1c(F)ccc2cc(O)cc(-c3ncc4c(N5CCOC[C@H](OC)C5)nc(OC[C@@]56CCCN5C[C@H](F)C6)nc4c3F)c12 (single isomer, unassigned) [Compound 49B] .
8.70

Now try C#Cc1c(F)ccc2cc(O)cc(-c3ncc4c(N5CCCO[C@H](C)C5)nc(OC[C@@]56CCCN5C[C@H](F)C6)nc4c3F)c12 (single isomer, unassigned) .
8.77

Now try C#Cc1c(F)ccc2cc(O)cc(-c3ncc4c(N5CC(F)COCC5C)nc(OC[C@@]56CCCN5C[C@H](F)C6)nc4c3F)c12 (stereo partly shown) .
8.58

Now try C#Cc1c(F)ccc2cc(O)cc(-c3ncc4c(N5CCOC[C@@H](OC)C5)nc(OC[C@@]56CCCN5C[C@H](F)C6)nc4c3F)c12 (single isomer, unassigned) [Compound 49A] .
7.40

Now try C#Cc1c(F)ccc2cc(O)cc(-c3ncc4c(N5CCCOCC5)nc(OCC5CN(C(=O)C=C)CCN5C)nc4c3F)c12 (stereo not shown) .
6.50

Now try "C#Cc1c(F)ccc2cc(O)cc(-c3c(C(F)(F)F)cc4c(N5CCCOCC5)nc(OC[C@@]56CCCN5C[C@H](F)C6)nc4c3F)c12" .
8.00

Now try C#Cc1c(F)ccc2cc(O)cc(-c3ncc4c(N5CCCOCC5)nc(OCC56CCCN5C[C@](C)(F)C6)nc4c3F)c12 (single isomer, unassigned) [Compound 32B] .
8.51

Now try C#Cc1c(F)ccc2cc(O)cc(-c3ncc4c(N5CCCO[C@@H](CC#N)C5)nc(OC[C@@]56CCCN5C[C@H](F)C6)nc4c3F)c12 (single isomer, unassigned) [Compound 15B] .
8.85
